# assayedTarget: UniProt Q96RU2
# Sequence (Q96RU2 whole entry, looked up): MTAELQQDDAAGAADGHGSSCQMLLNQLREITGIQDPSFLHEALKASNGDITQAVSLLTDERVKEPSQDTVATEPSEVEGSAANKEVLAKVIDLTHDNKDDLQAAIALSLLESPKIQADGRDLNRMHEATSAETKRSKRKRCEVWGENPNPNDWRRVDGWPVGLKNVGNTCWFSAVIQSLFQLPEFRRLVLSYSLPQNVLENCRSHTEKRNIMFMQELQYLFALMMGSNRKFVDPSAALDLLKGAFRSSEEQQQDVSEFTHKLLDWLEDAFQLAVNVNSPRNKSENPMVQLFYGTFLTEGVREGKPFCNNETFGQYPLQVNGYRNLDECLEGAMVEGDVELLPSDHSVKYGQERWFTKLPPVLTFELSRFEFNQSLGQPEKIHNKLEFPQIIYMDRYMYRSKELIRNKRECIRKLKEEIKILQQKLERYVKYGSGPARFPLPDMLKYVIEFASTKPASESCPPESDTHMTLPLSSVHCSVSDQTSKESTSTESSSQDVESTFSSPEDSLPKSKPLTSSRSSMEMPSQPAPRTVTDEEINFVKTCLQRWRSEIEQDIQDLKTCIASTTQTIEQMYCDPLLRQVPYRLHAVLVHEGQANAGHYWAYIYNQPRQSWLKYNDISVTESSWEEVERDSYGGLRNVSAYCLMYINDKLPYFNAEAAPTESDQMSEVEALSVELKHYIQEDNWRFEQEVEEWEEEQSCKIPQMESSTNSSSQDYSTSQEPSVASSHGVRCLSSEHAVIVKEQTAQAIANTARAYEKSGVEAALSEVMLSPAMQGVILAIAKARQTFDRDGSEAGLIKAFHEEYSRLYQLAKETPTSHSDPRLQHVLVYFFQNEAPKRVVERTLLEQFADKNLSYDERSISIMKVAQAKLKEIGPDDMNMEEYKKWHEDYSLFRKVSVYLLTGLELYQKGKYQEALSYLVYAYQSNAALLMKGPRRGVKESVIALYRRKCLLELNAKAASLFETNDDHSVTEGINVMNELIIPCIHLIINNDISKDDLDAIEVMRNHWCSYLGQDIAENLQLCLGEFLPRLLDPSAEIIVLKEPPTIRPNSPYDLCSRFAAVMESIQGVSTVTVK
# assayRemarks: Concentration-response biochemical assay confirming initial hits as inhibitors of ubiquitin-specific protease 28 (AID 1645866)
# experimentalParameters: purified USP28, ubiquitin-rhodamine fluorescence, 30 min
Active and inactive are the calls of the source.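 How the source made its calls: active means in confirmatory dose-response testing, peak deubiquitinase inhibition of 30% or more; inactive means the rest.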
Your reply should match one of these outcome classes. active, inactive

**Query** Can you look up the reported call for CC1CCCCN1CCCNC(=O)c1ccc(N2CCc3ccccc32)s1 (stereo not given) for me?
**Result** active

**Query** Given COc1cc(NC(=O)Cn2nc(-c3ccc(F)cc3)ccc2=O)ccc1-n1cnnn1 , state the outcome it received in this test.
**Result** active

**Query** Tell me the recorded outcome of this test for O=C(CSc1nc2cc(C(F)(F)F)ccc2s1)NCC(=O)c1ccccc1 .
**Result** active

**Query** Kindly provide the recorded test outcome for the following compound: O=C(CSc1nnnn1-c1ccccc1)Nc1ccccc1
**Result** active

**Query** Please let me know the test result on file for CCc1ccc(NC(=O)COc2cccc(-n3cnnn3)c2)cc1 .
**Result** active

**Query** Per the records of this test, what outcome belongs to Cc1c(C)n(-c2ccccc2)c2ncn(CC(=O)NCCCc3ccccc3)c(=O)c12 ?
**Result** active

**Query** Outcome? O=C(NCc1ccc(F)cc1)N1CCC2(C1)Nc1cccnc1NC2=NCc1ccccc1 (stereo not given)
**Result** inactive

**Query** Kindly provide the recorded test outcome for the following compound: CC(C)(C)N=C1Nc2ncccc2NC12CCCN(C(=O)c1ccccc1)C2 (stereo not given)
**Result** inactive

**Query** Field: outcome | Entry: COc1cc(Cl)ccc1Nc1ncc(C(=O)Nc2cc(OC)c(OC)c(OC)c2)c2ccccc12
**Result** active

**Query** Recorded test outcome, item Cc1ccccc1C(=O)NCCn1cc(SCC(=O)Nc2ccc3c(c2)OCCO3)c2ccccc21
**Result** active

**Query** Entry O=C(NCc1ccccc1Cl)c1ccc2cn[nH]c2c1 : call = ?
**Result** active

**Query** Per the records of this test, what outcome belongs to O=C(COC(=O)c1ccc(CN2CCCC2=O)cc1)c1ccc2c(c1)OCCO2 ?
**Result** active

**Query** So what was the verdict on COc1ccc(CNC(=O)CSc2nc3nc(C)ccc3o2)cc1 in this test?
**Result** active

**Query** # lookup: test call for Cc1cc(O)c2c3c(c(O)cc2c1)C(=O)c1c(O)cccc1C3=O
**Result** active

**Query** // param item: O=[N+]([O-])c1ccc(NCc2ccc(-c3cccs3)s2)nc1 ; yields the recorded call
**Result** active

**Query** What classification did COc1ccc2nc(NC(=O)C(CC(C)C)NS(=O)(=O)c3ccc4c(c3)CCN4C(C)=O)sc2c1 (stereo not given) end up with in this test?
**Result** active

**Query** How was O=C(Nc1oc2ccccc2c(=O)c1-c1ccc2c(c1)OCO2)C1CCCCC1 classified in this test?
**Result** active

**Query** Please share the test call associated with COc1cccc(/C=C/C(=O)Nc2ccc(C)c(Cl)c2)c1 .
**Result** active

**Query** // outcome(item) with item = O=C(COC(=O)c1cc(Cl)c2c(c1)OCO2)Nc1ccc2[nH]c(=O)[nH]c2c1
**Result** active

**Query** Record request — test call for O=C1NC(=O)/C(=C/c2ccc(OC(=O)c3ccc(Cl)cc3Cl)cc2)N1
**Result** active

**Query** Would you mind telling me which call this test gave COc1ccc(NC(=O)c2nnc(C(=O)NCCN3CCCCCC3)s2)cc1 ?
**Result** active

**Query** Check the results log: what was the call for O=C(CSc1nnc(CNC(=O)c2ccccc2F)o1)Nc1ccc(OC(F)(F)F)cc1 ?
**Result** active

**Query** Hello, I am checking results. What call was entered for O=S(=O)(O)c1cc2cc3ccccc3cc2[nH]1 ?
**Result** inactive

**Query** // param item: CCCC(=O)Nc1ccc(SCc2nnc(-c3ccccc3)o2)cc1 ; yields the recorded call
**Result** active

**Query** // outcome(item) with item = COc1ccc2c(c1)c(N1CCCC1=O)c(C(=O)NCc1cccc(OC)c1OC)n2C
**Result** inactive

**Query** Can you look up the reported call for COc1ccc(NC(=O)c2nnn(-c3ccccc3F)c2C)cc1OC for me?
**Result** active

**Query** Hi, do you know how O=C(Nc1ccccc1)c1nc2c(s1)CCN(C(=O)c1ccccc1)CC2 came out in this test?
**Result** inactive

**Query** Tell me the recorded outcome of this test for O=C(NC1(O)C(=O)c2ccccc2C1=O)c1cccc2c1-c1ccccc1C2=O .
**Result** active

**Query** Which result was noted for this compound in the test: O=C(Nc1ccc(F)c(Cl)c1)c1ccc(N2CCCCS2(=O)=O)cc1Cl
**Result** active

**Query** Entry COc1ccc(CCNC(=O)c2cc(C3CC3)nc3c2cnn3C(C)C)cc1 : call = ?
**Result** active

**Query** I would be grateful if you could indicate the recorded call for O=C1CC(c2ccco2)Cc2[nH]c(=O)c(C(=O)Nc3ccc(Cl)cc3)cc21 (stereo not given) .
**Result** active

**Query** Identify the outcome logged in this assay for the compound shown: Fc1ccc(CN2CCc3nc4cccnc4cc3C2)cc1
**Result** inactive

**Query** State the result this test recorded for Cc1nnc(Sc2cc(C(=O)NCCN3CCCC3)c3ccccc3n2)s1 .
**Result** inactive

**Query** Hi team, can someone confirm the assay call for O=C(CCCCn1c(=O)c2ccccc2n(Cc2ccccc2F)c1=O)NCCc1ccccc1 ?
**Result** active

**Query** Please share the test call associated with COc1ccc(S(=O)(=O)N(C)Cc2cccs2)cc1OC .
**Result** active

====

# assayedTarget: Ubiquitin carboxyl-terminal hydrolase 28 (Homo sapiens)
# assayRemarks: Concentration-response biochemical assay confirming initial hits as inhibitors of ubiquitin-specific protease 28 (AID 1645866)
# experimentalParameters: purified USP28, ubiquitin-rhodamine fluorescence, 30 min
Activity calls are given as the source filed them.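 Rule for the calls: active = in confirmatory dose-response testing, peak deubiquitinase inhibition of 30% or more; inactive = the rest.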
Hello, when you answer, please use one of the following outcomes: True for active, False for inactive

**Query** Check the results log: what was the call for Cc1cc(C)nc(SCCn2c(N3CCC(Cc4ccccc4)CC3)nc3c2c(=O)n(C)c(=O)n3C)n1 ?
**Result** False

**Query** What did this assay record as the result for N#Cc1c(Cl)cccc1Oc1ccc(S(=O)(=O)N2CCC(O)CC2)cc1 ?
**Result** True

**Query** Given COc1ccc(CCNC(=O)CSc2cn(CCNC(=O)c3ccc(F)cc3)c3ccccc23)cc1OC , state the outcome it received in this test.
**Result** True

====

# assayedTarget: Ubiquitin carboxyl-terminal hydrolase 28 (Homo sapiens)
# assayRemarks: Concentration-response biochemical assay confirming initial hits as inhibitors of ubiquitin-specific protease 28 (AID 1645866)
# experimentalParameters: purified USP28, ubiquitin-rhodamine fluorescence, 30 min
Active and inactive are the calls of the source.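 Rule for the calls: active = in confirmatory dose-response testing, peak deubiquitinase inhibition of 30% or more; inactive = the rest.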
observationType: IC50

**Query** Look up IC50 for this molecule: Cc1cccc(CNC(=O)C2CCCN(S(=O)(=O)Cc3ccc(F)cc3)C2)c1 (stereo unspecified)
**Result** 26.6 µM

**Query** // returns reported IC50 for input O=C(CNc1nc(Nc2ccccc2F)nc(Nc2ccccc2F)n1)Nc1ccccc1
**Result** 27 µM

**Query** Entry under review: Cc1cccc(-c2nc3n(CC(=O)Nc4ccc(Cl)cc4)c(C)cc(=O)n3n2)c1 . Reported IC50?
**Result** 0.985 µM

**Query** Can you share its IC50? I mean this molecule: COc1ccc(CCNC(=O)c2cn(-c3ccc(F)cc3)nn2)cc1OC
**Result** 20.8 µM

**Query** Requested read-out: IC50. Entry: Cc1ccc2c(=O)c(C(=O)Nc3ccccc3)cn(CC(=O)NC3CCCCC3)c2n1
**Result** > 50 µM (inactive)

**Query** Requested field: IC50. Item: O=C(Nc1ccccc1)c1cn(-c2cc(N3CCCC3)ncn2)cn1
**Result** > 50 µM (inactive)
